assay: self-splicing fitness, log relative to wild type (ln ratio); higher = more splicing; Tetrahymena group I intron in knt gene, E. coli kanamycin selection, DiMSum; sequences stand for … in CUCUCU…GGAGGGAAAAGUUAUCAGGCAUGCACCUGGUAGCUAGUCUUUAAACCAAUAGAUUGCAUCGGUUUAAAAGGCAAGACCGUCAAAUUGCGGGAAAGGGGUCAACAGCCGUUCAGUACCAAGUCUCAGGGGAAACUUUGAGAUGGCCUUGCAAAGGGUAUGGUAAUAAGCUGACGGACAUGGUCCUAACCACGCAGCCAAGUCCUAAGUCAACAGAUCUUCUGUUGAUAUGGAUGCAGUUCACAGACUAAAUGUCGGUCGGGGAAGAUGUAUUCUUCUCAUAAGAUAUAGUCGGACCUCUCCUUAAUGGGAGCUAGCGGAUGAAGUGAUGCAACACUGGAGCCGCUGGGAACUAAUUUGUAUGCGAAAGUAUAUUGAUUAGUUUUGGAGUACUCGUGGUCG; details: 37 °C;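 note: selection with 25 µg/mL kanamycin versus none on LB agar overnight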
self-splicing fitness (ln) overview

[
  {
    "querySequence": "UAGAAGCAAUAUUACGAUAA",
    "self-splicing fitness (ln)": -0.854
  }
]

Please look at this sequence and report its self-splicing fitness (ln): CAUCAGCAAUAUUACGUGUG
-1.38

Please look at this sequence and report its self-splicing fitness (ln): GGGAAGCAAUAUUACGUGAC
0.336

Please look at this sequence and report its self-splicing fitness (ln): UACCAGCAAUAUUACGCUCG
-0.203

Please look at this sequence and report its self-splicing fitness (ln): CCCUAGCAAUAUUACGAAAU
-2.59

Please look at this sequence and report its self-splicing fitness (ln): AGCAAGCAAUAUUACGAUCG
-0.163

Please look at this sequence and report its self-splicing fitness (ln): GUCGAGCAAUAUUACGCUGC
-1.97

Please look at this sequence and report its self-splicing fitness (ln): CCAUAGCAAUAUUACGGAUA
-1.81
